test-protocol: 8-day repeat-dose study, tolerability (blood chemistry, hematology, adverse events) in tumor-bearing dogs
Type: in vivo, dog
measurement-conditions: Dog 5; Post: 30 min after last injection on day 8; 10 mg s.c. once daily for 8 days
Experimental: Previous studies utilizing repeat dosing in mice and rats established safe starting doses for studies using dogs. […] Blood levels of AFPep were measured before and 30 minutes following its administration on the first day and eighth day of treatment with AFPep. […] Tolerability was assessed using the Veterinary Cooperative Oncology Group Common Terminology Criteria for Adverse Events. […]
Where a SMILES comes first, the peptide text is derived from it. [ ]: non-standard residue; d: D form. Hyp = O=C(O)[C@@H]1C[C@@H](O)CN1
endpoint-name: Potassium (mmol/L)
// note: answer is a bare numeric in mmol/L

Q: // Potassium lookup, key: CC(C)[C@@H]1NC(=O)[C@@H]2C[C@@H](O)CN2C(=O)[C@H]([C@@H](C)O)NC(=O)[C@H](CCCCN)NC(=O)[C@H](CCC(=O)O)NC(=O)[C@H](CC(N)=O)NC(=O)CNC(=O)[C@@H]2C[C@@H](O)CN2C(=O)[C@H](CC(N)=O)NC1=O [AFPep] (cyclo(EKT[Hyp]VN[Hyp]GN))
Ans: 5
